target: LC3B K49E (human, UniProt Q9GZQ8 1-120, K49E); assay: ITC; MicroCal iTC200, 25 °C; proteins 0.25 mmol/L and peptides 3 mmol/L, dialyzed against buffer B (20 mmol/L Tris-HCl, 200 mmol/L NaCl, 1 mmol/L EDTA, pH 8.0); single binding site model; conditions: both partners purified
Non-standard residues stand in square brackets, D forms with d. No end group written: not given here. pS = N[C@@H](COP(=O)(O)O)C(=O)O
READOUT TYPE: pKd
# pKd = -log10(concentration in molar units)

Prompt line: Which pKd value is on record for DYESDDD[pS]YEVLDLTE (also called FUNDC1 pS17; FUNDC1 pS17 peptide; source: synthetic peptide (GL Biochem, Shanghai)) [FUNDC1 LIR peptide 10-25 phosphorylated at Ser17] ?
Response line: 3.92
